Target: Full length human AR (Homo sapiens)
Sequence (P10275 1-920): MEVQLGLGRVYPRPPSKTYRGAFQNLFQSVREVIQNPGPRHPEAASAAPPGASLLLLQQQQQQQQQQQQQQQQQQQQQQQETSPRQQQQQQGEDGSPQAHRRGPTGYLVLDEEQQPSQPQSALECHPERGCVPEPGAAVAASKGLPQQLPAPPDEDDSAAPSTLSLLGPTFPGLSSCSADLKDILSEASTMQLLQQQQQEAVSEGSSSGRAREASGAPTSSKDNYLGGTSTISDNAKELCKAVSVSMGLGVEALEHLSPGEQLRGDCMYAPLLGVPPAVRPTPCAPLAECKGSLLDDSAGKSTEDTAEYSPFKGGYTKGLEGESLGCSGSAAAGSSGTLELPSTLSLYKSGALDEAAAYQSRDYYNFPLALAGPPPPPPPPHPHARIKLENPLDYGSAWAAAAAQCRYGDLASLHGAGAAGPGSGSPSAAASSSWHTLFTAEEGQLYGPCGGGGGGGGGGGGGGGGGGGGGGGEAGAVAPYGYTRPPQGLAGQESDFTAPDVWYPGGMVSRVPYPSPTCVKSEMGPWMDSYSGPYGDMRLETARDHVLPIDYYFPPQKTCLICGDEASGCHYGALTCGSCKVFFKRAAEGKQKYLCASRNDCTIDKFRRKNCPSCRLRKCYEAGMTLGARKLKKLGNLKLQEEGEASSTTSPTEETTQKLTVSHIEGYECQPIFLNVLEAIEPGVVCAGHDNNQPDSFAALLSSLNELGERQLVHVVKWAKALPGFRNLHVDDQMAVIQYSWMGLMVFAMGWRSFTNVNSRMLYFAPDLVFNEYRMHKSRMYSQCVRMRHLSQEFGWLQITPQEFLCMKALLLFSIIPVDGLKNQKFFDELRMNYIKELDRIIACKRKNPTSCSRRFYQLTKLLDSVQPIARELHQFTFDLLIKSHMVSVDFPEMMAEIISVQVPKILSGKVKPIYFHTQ
RECORDED ENDPOINT: pKd
The meaning of pKd here: minus log10 of the concentration in molar units.

// query Give Full length human AR (Homo sapiens) pKd for the following compound: O=c1cc(-c2cccc(O)c2)oc2cccc(O)c12 [KCI807, 5,3′-dihydroxyflavone]
// result 7.16
